Note to self: class = bucket of log10 vapour pressure (mmHg), per low (below -4), moderate (-4 to below 0.3), high (0.3 or more)

Past entries and their recorded results:
>  <compound>
CCCS

>  <category>
high

$$$$
>  <compound>
CCCCCCCC(=O)OC

>  <category>
moderate

$$$$
>  <compound>
c1ccc(-c2ccc3ccccc3c2)cc1

>  <category>
low

$$$$

Now consider a different compound.
State the band of "CCCC(C)(C)O" high

----------
This listing pairs compounds with measured melting point.
Kindly write the number and append the unit.

Some solved entries appear below for comparison.
>  <smiles-str>
Clc1ccc(Br)cc1

>  <melting point>
68 °C

$$$$
>  <smiles-str>
CCOCCC(OCC)OCC

>  <melting point>
53 °C

$$$$

For the compound shown here, "COc1c(C(C)C)oc2cc3oc(=O)ccc3cc12" , give the reported melting point. 85 °C

For the compound shown here, "CO[C@H]1O[C@H](CNC(=O)N(CCCl)N=O)[C@@H](O)[C@H](O)[C@H]1O" , give the reported melting point. 111 °C

For the compound shown here, "CN1CCN(C2=Nc3ccccc3Sc3ccc(Cl)cc32)CC1" , give the reported melting point. 119 °C

For the compound shown here, "CC#CCO" , give the reported melting point. -2.2 °C

For the compound shown here, "CC(=O)Nc1cccc(F)c1" , give the reported melting point. 83 °C

For the compound shown here, "CCN1CCN(c2cc3c(cc2F)c(=O)c(C(=O)O)cn3C2CC2)CC1" , give the reported melting point. 220 °C

For the compound shown here, "O=C(O)[C@@H](O)[C@H](O)[C@H](O)[C@@H](O)C(=O)O" , give the reported melting point. 126 °C
